- ASSAY OVERVIEW: Solubility in water
- Type: physicochemical

>  <SMILES RECORD>
CC(C)Cn1cnc2c(N)nc3ccccc3c21

>  <solubility>
0.79 µg/mL

$$$$
